Tested on: pJNK in HCT-116 cells
MEASUREMENT_DESCRIPTION: Phospho-JNK (Thr183/Tyr185) Meso Scale ELISA assay, TNFα-stimulated HCT-116 cells
Format: cell-based
REPORTED_CONDITIONS: Homo sapiens, read-out: mean HCT-116 pJNK ELISA IC50 (Col. B)
Where a name gives a salt, the structure may show the parent alone.
OBSERVATION_TYPE: IC50

The cases that follow already have their IC50 on record.
INSERT INTO results (compound, observed_measurement) VALUES
  ('Nc1ncc(-c2cnn([C@@H]3CCC[C@H](O)C3)c2)c2cc(-c3csc4cnccc34)oc12 (relative stereo) [Example 310]', '< 100 nM'),
  ('CC(=O)N1CCC(n2cc(-c3cnc(N)c4oc(-c5cccn6ccnc56)cc34)cn2)CC1 [Example 221, bis(trifluoroacetate)]', '100 to 1000 nM'),
  ('Nc1ncc(-c2cnn(C3CCN(CCO)CC3)c2)c2cc(-c3cccc4cnccc34)oc12 [Example 85]', '100 to 1000 nM'),
  ('CC(=O)N1CCC(n2cc(-c3cnc(N)c4oc(-c5c(C)sc6cnccc56)cc34)cn2)CC1 [Example 253, trifluoroacetate]', '100 to 1000 nM'),
  ('Cn1cc(-c2cnc(N)c3oc(-c4csc5cnccc45)cc23)cn1 [Example 290]', '100 to 1000 nM'),
  ('Nc1ncc(-c2cnn(C3CCN(CCF)CC3)c2)c2cc(-c3cccc4cnccc34)oc12 [Example 83]', '< 100 nM'),
  ('CN1CCC(n2cc(-c3cnc(N)c4oc(-c5cccc6cnccc56)cc34)cn2)CC1 [Example 77]', '< 100 nM'),
  ('CC(=O)N1CCC(n2cc(-c3cnc(N)c4oc(-c5cc(F)cc6cnsc56)cc34)cn2)CC1 [Example 237, diformate salt]', '< 100 nM');

For every listed record, write down its IC50.
1. CNc1nc2cccc(-c3cc4c(-c5cnn([C@H]6CC[C@H](O)CC6)c5)cnc(N)c4o3)c2s1 [Example 351, Trifluoroacetate]
2. CC(C)N1[C@@H]2CC[C@H]1C[C@H](n1cc(-c3cnc(N)c4oc(-c5csc6cnccc56)cc34)cn1)C2 [Example 329]
3. Nc1ncc(-c2cnn([C@H]3CC[C@H](O)CC3)c2)c2cc(-c3csc4cnncc34)oc12 [Example 268, bistrifluoroacetate]
4. CC(=O)N1CCC(n2cc(-c3cnc(N)c4oc(-c5c(F)ccc6cnsc56)cc34)cn2)CC1 [Example 239, diformate salt]
5. CC(=O)N1CCC(n2cc(-c3cnc(N)c4oc(-c5csc6cncnc56)cc34)cn2)CC1 [Example 260]
6. CNc1ncc(-c2cnn(C3CCN(C(C)=O)CC3)c2)c2cc(-c3c[nH]c4cnccc34)oc12 [Example 280, trifluoroacetic acid salt]
7. CC(=O)N1CCC(n2cc(-c3cnc(N)c4oc(-c5cccc6nnsc56)cc34)cn2)CC1 [Example 224, diformate salt]
8. CC(C)(O)C#Cc1sc2cnccc2c1-c1cc2c(-c3cnn([C@H]4CC[C@H](O)CC4)c3)cnc(N)c2o1 [Example 271, trifluoroacetate]

Result block:
< 100 nM
100 to 1000 nM
< 100 nM
100 to 1000 nM
1000 to 10000 nM
1000 to 10000 nM
< 100 nM
1000 to 10000 nM

Below is a list of compounds. For each, state its recorded IC50.
1. CC(=O)N1CCC(n2cc(-c3cnc(N)c4oc(-c5ccc6c(c5)CCO6)cc34)cn2)CC1 [Example 108]
2. Nc1ncc(-c2cnn([C@H]3CC[C@H](O)CC3)c2)c2cc(-c3cccc4sncc34)oc12 [Example 242, Diformate Salt]
3. Nc1ncc(-c2cnn([C@H]3CC[C@H](O)CC3)c2)c2cc(-c3cc(F)cc4cnsc34)oc12 [Example 238, diformate salt]
4. CNc1nc2cccc(-c3cc4c(-c5cnn(C6CCN(C(C)=O)CC6)c5)cnc(N)c4o3)c2s1 [Example 350, trifluoroacetate]
5. CC(=O)c1cccc(-c2cc3c(-c4cnn(C5CCN(C(C)=O)CC5)c4)cnc(N)c3o2)c1 [Example 124]

Result block:
1. 100 to 1000 nM
2. < 100 nM
3. < 100 nM
4. < 100 nM
5. 100 to 1000 nM
